test system: Escherichia coli TOP10; assay: shrunken log2 fold change of peptide-encoding DNA abundance (4.5 h post-induction vs induction); higher = less antimicrobial activity (less host growth inhibition); conditions: time post-induction: 4.5 h; library: site-saturation at positions 5, 18, 19, 20
Label 1.0 for high-side shrunken log2 fold change (at or above 0.06) and 0.0 for low-side shrunken log2 fold change (below it).

1) RRIRCRPPRLPRPRPRPPWHPRP    0.0
2) RRIRWRPPRLPRPRPRPAWFPRP    1.0
3) RRIRGRPPRLPRPRPRPPSPPRP    1.0
4) RRIRRRPPRLPRPRPRPVDKPRP    0.0
5) RRIRCRPPRLPRPRPRPVWNPRP    0.0
6) RRIRWRPPRLPRPRPRPWVIPRP    0.0
7) RRIRFRPPRLPRPRPRPWCSPRP    0.0
8) RRIRPRPPRLPRPRPRPWCPPRP    1.0
9) RRIRLRPPRLPRPRPRPGPQPRP    1.0

====

Attribute: shrunken log2 fold change
system: Escherichia coli TOP10; experiment: shrunken log2 fold change of peptide-encoding DNA abundance (4.5 h post-induction vs induction); higher = less antimicrobial activity (less host growth inhibition); settings: time post-induction: 4.5 h; library: site-saturation at positions 5, 18, 19, 20;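 note: peptides expressed intracellularly from a pBAD plasmid library in pooled LB shake-flask culture, induced with 0.3% L-arabinose, DNA abundance read by NGS, three biological replicates, DESeq2 with apeglm shrinkage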
measured_parameter: shrunken log2 fold change

1) RRIRKRPPRLPRPRPRPYFGPRP    -0.711
2) RRIRFRPPRLPRPRPRPAGAPRP    0.515
3) RRIRNRPPRLPRPRPRPPKAPRP    0.00248
4) RRIRGRPPRLPRPRPRPASRPRP    0.705
5) RRIRMRPPRLPRPRPRPWEQPRP    0.0405
6) RRIRQRPPRLPRPRPRPKAWPRP    -0.0334
7) RRIRLRPPRLPRPRPRPTYGPRP    -0.0237
8) RRIRWRPPRLPRPRPRPWQAPRP    0.00325
9) RRIRQRPPRLPRPRPRPVFDPRP    -0.446
10) RRIRERPPRLPRPRPRPDFHPRP    -0.498
11) RRIRKRPPRLPRPRPRPTCPPRP    0.0404
12) RRIRERPPRLPRPRPRPGLIPRP    0.101
13) RRIRVRPPRLPRPRPRPVAIPRP    -0.396
14) RRIRMRPPRLPRPRPRPASQPRP    0.174
15) RRIRMRPPRLPRPRPRPFDMPRP    -0.192
16) RRIRCRPPRLPRPRPRPHQRPRP    -0.422
17) RRIRFRPPRLPRPRPRPIVQPRP    0.00873
18) RRIRIRPPRLPRPRPRPCGAPRP    -0.25
19) RRIRYRPPRLPRPRPRPDTCPRP    -0.233
20) RRIRKRPPRLPRPRPRPSIAPRP    0.00111
21) RRIRHRPPRLPRPRPRPDVYPRP    0.0592
22) RRIRFRPPRLPRPRPRPACKPRP    -0.0419
23) RRIRQRPPRLPRPRPRPFKEPRP    0.343
24) RRIRRRPPRLPRPRPRPPPEPRP    1.37
25) RRIRYRPPRLPRPRPRPMREPRP    0.529
26) RRIRRRPPRLPRPRPRPYPNPRP    -0.0882
27) RRIRSRPPRLPRPRPRPPDSPRP    0.322
28) RRIRYRPPRLPRPRPRPLTFPRP    -0.696
29) RRIRFRPPRLPRPRPRPVYYPRP    -1.27
30) RRIRCRPPRLPRPRPRPFCYPRP    -0.733
31) RRIRIRPPRLPRPRPRPWQWPRP    -0.108
32) RRIRSRPPRLPRPRPRPRYHPRP    -0.339
33) RRIRNRPPRLPRPRPRPSPVPRP    0.00108
34) RRIRCRPPRLPRPRPRPIDMPRP    -0.175
35) RRIRMRPPRLPRPRPRPFAWPRP    0.139
36) RRIRKRPPRLPRPRPRPHHVPRP    -0.348
37) RRIRMRPPRLPRPRPRPSFNPRP    -0.535
38) RRIRIRPPRLPRPRPRPSVVPRP    0.055
39) RRIRKRPPRLPRPRPRPCCGPRP    0.281
40) RRIRCRPPRLPRPRPRPMISPRP    -0.235
41) RRIRRRPPRLPRPRPRPYRPPRP    -0.0416
42) RRIRYRPPRLPRPRPRPSLWPRP    -0.0532
43) RRIRDRPPRLPRPRPRPSHSPRP    -0.127
44) RRIRNRPPRLPRPRPRPKCDPRP    -0.471
45) RRIRPRPPRLPRPRPRPCYIPRP    -0.795
46) RRIRWRPPRLPRPRPRPEMDPRP    0.7
47) RRIRLRPPRLPRPRPRPRFFPRP    0.0823
48) RRIRKRPPRLPRPRPRPWYWPRP    -0.151
49) RRIRGRPPRLPRPRPRPQKYPRP    -0.0606
50) RRIRSRPPRLPRPRPRPHKSPRP    -0.414
51) RRIRERPPRLPRPRPRPTQVPRP    -0.0607
52) RRIRQRPPRLPRPRPRPFIPPRP    -0.395
